Below, each entry is listed alongside its reported IC50.
# target.or.test.system: AmpC (Pseudomonas aeruginosa)
# Construct: AmpC, TEM-1, KPC-2 or OXA-2 domain excluding signal peptide was amplified with PCR
# Sequence (P24735 27-397): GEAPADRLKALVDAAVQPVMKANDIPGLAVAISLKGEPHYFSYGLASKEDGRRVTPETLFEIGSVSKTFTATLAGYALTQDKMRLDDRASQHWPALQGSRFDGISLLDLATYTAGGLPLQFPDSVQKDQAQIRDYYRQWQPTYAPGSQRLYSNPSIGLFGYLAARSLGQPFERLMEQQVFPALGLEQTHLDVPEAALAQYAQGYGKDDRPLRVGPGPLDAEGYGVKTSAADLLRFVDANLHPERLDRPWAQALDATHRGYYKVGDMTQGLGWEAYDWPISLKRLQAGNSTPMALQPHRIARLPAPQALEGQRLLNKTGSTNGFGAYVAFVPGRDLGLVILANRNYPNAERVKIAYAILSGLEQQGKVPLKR
# experiment: biochemical

Answered examples (3):
test_smiles=CCOC(=O)NNC(=O)[C@@H]1CC[C@@H]2CN1C(=O)N2OS(=O)(=O)O endpoint_result="100 to 1000 nM"
test_smiles=O=C(NOCCN1CCNC1=O)[C@@H]1CC[C@@H]2CN1C(=O)N2OS(=O)(=O)O endpoint_result="< 100 nM"
test_smiles=O=C(NOC[C@H]1CCCN1)[C@@H]1CC[C@@H]2CN1C(=O)N2OS(=O)(=O)O endpoint_result="100 to 1000 nM"

Kindly consider the entry below.
Report IC50, nothing else, for this molecule: O=C(NOCC(=O)N1CCCNCC1)[C@@H]1CC[C@@H]2CN1C(=O)N2OS(=O)(=O)O < 100 nM

====

Below, each entry is listed alongside its reported IC50.
# target.or.test.system: TEM-1 (Escherichia coli)
# Construct: AmpC, TEM-1, KPC-2 or OXA-2 domain excluding signal peptide was amplified with PCR; made in house; host or cells: Escherichia coli BL21 (DE3), pET-28b(+)
# Sequence (P62593 24-286 limits assumed): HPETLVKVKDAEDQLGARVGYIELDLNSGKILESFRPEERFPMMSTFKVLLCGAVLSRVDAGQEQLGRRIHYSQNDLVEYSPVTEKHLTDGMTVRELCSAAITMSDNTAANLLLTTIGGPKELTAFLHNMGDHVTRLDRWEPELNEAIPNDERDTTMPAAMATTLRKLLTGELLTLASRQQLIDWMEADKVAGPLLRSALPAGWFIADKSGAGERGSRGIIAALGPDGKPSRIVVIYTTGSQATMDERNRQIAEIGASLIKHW
# experiment: β-Lactamase inhibitory activity (nitrocefin hydrolysis), TEM-1
# Format: biochemical
# experimental.setup: TEM-1 0.1 nM, 100 μM nitrocefin, pre-incubation 30° C. 10 minutes

Answered examples (3):
compound=O=C(NNC(=O)[C@@H]1CC[C@@H]2CN1C(=O)N2OS(=O)(=O)O)c1ccncc1 parameter_measured=IC50 endpoint_result="< 100 nM"
compound=O=C(NOCCN1CCNC1=O)[C@@H]1CC[C@@H]2CN1C(=O)N2OS(=O)(=O)O parameter_measured=IC50 endpoint_result="< 100 nM"
compound=O=C(NNC(=O)[C@@H]1CC[C@@H]2CN1C(=O)N2OS(=O)(=O)O)[C@@H]1C[C@H](CC2CC2)CCN1 parameter_measured=IC50 endpoint_result="< 100 nM"

Report IC50, nothing else, for this compound: CS(=O)(=O)NNC(=O)[C@@H]1CC[C@@H]2CN1C(=O)N2OS(=O)(=O)O < 100 nM

Report IC50, nothing else, for this compound: O=C(NNC(=O)[C@@H]1CC[C@@H]2CN1C(=O)N2OS(=O)(=O)O)C1CCNCC1 < 100 nM

Report IC50, nothing else, for this compound: CN(C)C(=O)CONC(=O)[C@@H]1CC[C@@H]2CN1C(=O)N2OS(=O)(=O)O < 100 nM

Report IC50, nothing else, for this compound: O=C(NNC(=O)N1CCOCC1)[C@@H]1CC[C@@H]2CN1C(=O)N2OS(=O)(=O)O 100 to 1000 nM

Report IC50, nothing else, for this compound: NCC(=O)NNC(=O)[C@@H]1CC[C@@H]2CN1C(=O)N2OS(=O)(=O)O (racemic) 100 to 1000 nM

====

Below, each entry is listed alongside its reported pIC50.
# target.or.test.system: KPC-2 (Klebsiella pneumoniae)
# Construct: AmpC, TEM-1, KPC-2 or OXA-2 domain excluding signal peptide was amplified with PCR; made in house; host or cells: Escherichia coli BL21 (DE3), pET-28b(+)
# Sequence (Q9F663 25-293, looked up): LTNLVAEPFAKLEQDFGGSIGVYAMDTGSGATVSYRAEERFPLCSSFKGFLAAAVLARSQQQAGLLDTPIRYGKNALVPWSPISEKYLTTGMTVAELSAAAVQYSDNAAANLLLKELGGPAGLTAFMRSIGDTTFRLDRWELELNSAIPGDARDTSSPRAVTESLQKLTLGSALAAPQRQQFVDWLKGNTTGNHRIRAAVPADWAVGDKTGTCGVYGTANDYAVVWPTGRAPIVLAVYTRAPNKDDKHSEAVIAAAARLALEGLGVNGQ
# experiment: β-Lactamase inhibitory activity (nitrocefin hydrolysis), KPC-2
# Assay type: biochemical
# experimental.setup: KPC-2 0.5 nM, 100 μM nitrocefin, pre-incubation 30° C. 10 minutes
pIC50: −log10 of the molar value.

compound=O=C(NOC1CCNCC1)[C@@H]1CC[C@@H]2CN1C(=O)N2OS(=O)(=O)O parameter_measured=pIC50 endpoint_result="5.52 to 6.00"
compound="CC(C)(C)OC(=O)NNC(=O)[C@@H]1CC[C@@H]2CN1C(=O)N2OS(=O)(=O)O (racemic)" parameter_measured=pIC50 endpoint_result="6.00 to 7.00"
compound="CNNC(=O)[C@@H]1CC[C@@H]2CN1C(=O)N2OS(=O)(=O)O (racemic)" parameter_measured=pIC50 endpoint_result="6.00 to 7.00"
compound=O=C(NOCC1CCC1)[C@@H]1CC[C@@H]2CN1C(=O)N2OS(=O)(=O)O parameter_measured=pIC50 endpoint_result="> 7.00"
compound="O=C(NNC(=O)[C@@H]1CC[C@@H]2CN1C(=O)N2OS(=O)(=O)O)Nc1ccccc1 (racemic)" parameter_measured=pIC50 endpoint_result="6.00 to 7.00"
compound=CC(C)C(=O)NNC(=O)[C@@H]1CC[C@@H]2CN1C(=O)N2OS(=O)(=O)O parameter_measured=pIC50 endpoint_result="6.00 to 7.00"

Report pIC50, nothing else, for this compound: Nc1ccc(CC(=O)NNC(=O)[C@@H]2CC[C@@H]3CN2C(=O)N3OS(=O)(=O)O)cc1 6.00 to 7.00

Report pIC50, nothing else, for this compound: C[C@]1(Cn2ccnn2)[C@H](C(=O)O)N2C(=O)C[C@H]2S1(=O)=O [TAZ, tazobactam, reference compound] 6.00 to 7.00

Report pIC50, nothing else, for this compound: O=C(NOCCO)[C@@H]1CC[C@@H]2CN1C(=O)N2OS(=O)(=O)O > 7.00

Report pIC50, nothing else, for this compound: O=C(NOCCN1CCNCC1)[C@@H]1CC[C@@H]2CN1C(=O)N2OS(=O)(=O)O 6.00 to 7.00

Report pIC50, nothing else, for this compound: CONC(=O)[C@@H]1CC[C@@H]2CN1C(=O)N2OS(=O)(=O)O 6.00 to 7.00

The reported measurements were obtained from patent US10556905B2.
